- METHOD: Metabolic stability in human hepatocytes assessed as extraction ratio after 4 hrs
- Assay type: ADME, cell-based, Hepatocyte
TEST READOUT: hepatic extraction ratio at 4 h

{"columns": ["INPUT SMILES", "hepatic extraction ratio at 4 h"],
 "data": [
  ["CC(C)CN(O)C(=O)c1cc2ccn(Cc3ccc(F)cc3)c2cn1", 0.95],
  ["O=C(c1cc2ccn(Cc3ccc(F)cc3)c2cn1)N(O)Cc1ccccc1", 1],
  ["CON(C)C(=O)c1cc2ccn(Cc3ccc(F)cc3F)c2cn1", 1],
  ["CONC(=O)c1cc2ccn(Cc3ccc(F)cc3F)c2cn1", 1],
  ["O=C(c1cc2ccn(Cc3ccc(F)cc3)c2cn1)N(O)CCCO", 0.95],
  ["CN(O)C(=O)c1cc2ccn(Cc3ccc(F)cc3F)c2cn1", 1],
  ["CC(C)N(O)C(=O)c1cc2ccn(Cc3ccc(F)cc3)c2cn1", 0.93],
  ["CCCN(O)C(=O)c1cc2ccn(Cc3ccc(F)cc3)c2cn1", 0.96],
  ["O=C(NO)c1cc2ccn(Cc3ccc(F)cc3)c2cn1", 0.92],
  ["O=C(NO)c1cc2ccn(Cc3ccc(F)cc3F)c2cn1", 0.9]
]}

----------
- METHOD: Cytotoxicity against human CEM-SS cells by XTT assay
- Format: cell-based
TEST READOUT: CC50

Solved entries (count: 5):
{"columns": ["INPUT SMILES", "TEST READOUT", "RESULT VALUE"],
 "data": [
  ["N#Cc1ccc(Cn2ccc3cc(C(=O)NO)ncc32)cc1", "CC50", "> 10 µM"],
  ["CC(C)N(O)C(=O)c1cc2ccn(Cc3ccc(F)cc3)c2cn1", "CC50", "36 µM"],
  ["O=C(NO)c1cc2ccn(Cc3ccc(F)cc3)c2cn1", "CC50", "159 µM"],
  ["CON(C)C(=O)c1cc2ccn(Cc3ccc(F)cc3F)c2cn1", "CC50", "> 10 µM"],
  ["O=C(NO)c1cc2ccn(Cc3cccc(Cl)c3F)c2cn1", "CC50", "> 320 µM"]
]}

## Input Look up CC50 for this molecule: CC(C)CN(O)C(=O)c1cc2ccn(Cc3ccc(F)cc3)c2cn1
## Output 102 µM

## Input Name the reported CC50 value associated with the molecule CN(O)C(=O)c1cc2ccn(Cc3ccc(F)cc3F)c2cn1
## Output 135 µM

## Input Given the molecule NC(=O)c1cc(Cn2ccc3cc(C(=O)NO)ncc32)ccc1F , what is its reported CC50?
## Output > 10 µM

## Input Could you share which CC50 value was measured for O=C(NO)c1cc2ccn(Cc3c(F)ccc(Cl)c3F)c2cn1 ?
## Output > 1 µM

## Input Form field: reported CC50 of N#Cc1cc(F)ccc1Cn1ccc2cc(C(=O)NO)ncc21
## Output > 10 µM

## Input Consider the molecule CN(O)C(=O)c1cc2ccn(Cc3ccc(F)cc3)c2cn1 and give its measured CC50.
## Output 200 µM

## Input Reported CC50 for O=C(c1cc2ccn(Cc3ccc(F)cc3)c2cn1)N(O)Cc1ccccc1 : what is it?
## Output > 320 µM

## Input # query: CC50 of entry O=C(NO)c1cc2ccn(Cc3cccc(Cl)c3Cl)c2cn1
## Output > 320 µM

## Input Quick one: CC50 of O=C(NO)c1cc2ccn(Cc3ccc(Cl)s3)c2cn1 ?
## Output > 10 µM

## Input # input molecule: NC(=O)c1cc(F)ccc1Cn1ccc2cc(C(=O)NO)ncc21 ; wanted: its CC50
## Output > 10 µM

## Input Any idea what its CC50 is? The molecule is O=C(NO)c1cc2ccn(Cc3cccc(CO)n3)c2cn1
## Output > 10 µM

## Input Suppose we examine the molecule CONC(=O)c1cc2ccn(Cc3ccc(F)cc3F)c2cn1 ; what CC50 value has been reported?
## Output > 320 µM

## Input Field request: CC50 | item: O=C(NO)c1cc2ccn(Cc3ccc(F)cc3F)c2cn1
## Output > 320 µM

## Input What value of CC50 has been recorded for this entry: NC(=O)c1cccc(Cn2ccc3cc(C(=O)NO)ncc32)c1
## Output > 10 µM

## Input May I ask what CC50 has been recorded for N#Cc1cccc(Cn2ccc3cc(C(=O)NO)ncc32)c1 ?
## Output > 10 µM

## Input I have this molecule here, O=C(NO)c1cc2ccn(Cc3ccccn3)c2cn1 , and I need its recorded CC50.
## Output > 10 µM

----------
- METHOD: Metabolic stability in human liver microsomes assessed as extraction ratio after 4 hrs in presence of NADPH
- Format: ADME, Microsome
TEST READOUT: hepatic extraction ratio at 4 h

[I] CONC(=O)c1cc2ccn(Cc3ccc(F)cc3F)c2cn1
[II] CON(C)C(=O)c1cc2ccn(Cc3ccc(F)cc3F)c2cn1
## Input Between the entries labelled I and II , which has a larger hepatic extraction ratio at 4 h value on record? Record your answer as the label of the chosen record.
## Output II
(II: 1, I: 0.68)

----------
- Test system: Human immunodeficiency virus 1
- METHOD: Antiviral activity against HIV1 RF in human CEM-SS cells assessed inhibition of virus-induced cytopathic effect by XTT assay
- Type: functional, organism-based
- CONDITION CONTEXT: Human immunodeficiency virus 1, RF
TEST READOUT: pEC50
Remember the convention: pEC50 equals -log10 of concentration in molar.

{"columns": ["INPUT SMILES", "pEC50"],
 "data": [
  ["NC(=O)c1cccc(Cn2ccc3cc(C(=O)NO)ncc32)c1", 6.28],
  ["O=C(NO)c1cc2ccn(Cc3cccc(Cl)c3F)c2cn1", 8.10],
  ["O=C(NO)c1cc2ccn(Cc3ccccn3)c2cn1", 7.06],
  ["O=C(c1cc2ccn(Cc3ccc(F)cc3)c2cn1)N(O)Cc1ccccc1", 6.48],
  ["N#Cc1ccc(Cn2ccc3cc(C(=O)NO)ncc32)cc1", 5.92]
]}

## Input Lab request: please report pEC50 under test system Human immunodeficiency virus 1 for CC(C)N(O)C(=O)c1cc2ccn(Cc3ccc(F)cc3)c2cn1
## Output 5.46

## Input Look up pEC50 with Human immunodeficiency virus 1 for this molecule: CN(O)C(=O)c1cc2ccn(Cc3ccc(F)cc3F)c2cn1
## Output 7.49

## Input # query: pEC50 | item NC(=O)c1cc(Cn2ccc3cc(C(=O)NO)ncc32)ccc1F | system: Human immunodeficiency virus 1
## Output 7.24

## Input Reported pEC50 for Human immunodeficiency virus 1, given N#Cc1cccc(Cn2ccc3cc(C(=O)NO)ncc32)c1 ?
## Output 6.30

## Input Give Human immunodeficiency virus 1 pEC50 for O=C(c1cc2ccn(Cc3ccc(F)cc3)c2cn1)N(O)CCCO
## Output 6.52

----------
- SYSTEM: Human immunodeficiency virus type 1 integrase (Human immunodeficiency virus 1, UniProt Q7ZJM1)
- Sequence (Q7ZJM1 whole entry): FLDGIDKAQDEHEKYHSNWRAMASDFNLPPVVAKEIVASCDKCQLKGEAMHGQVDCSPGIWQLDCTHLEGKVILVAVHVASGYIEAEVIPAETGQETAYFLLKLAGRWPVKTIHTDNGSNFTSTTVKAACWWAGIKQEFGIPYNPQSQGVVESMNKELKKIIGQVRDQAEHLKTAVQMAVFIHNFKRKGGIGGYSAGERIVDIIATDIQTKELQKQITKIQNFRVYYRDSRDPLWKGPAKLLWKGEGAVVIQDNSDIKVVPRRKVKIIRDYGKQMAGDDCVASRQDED
pIC50: −log10 of the molar value.
TEST READOUT: pIC50

{"columns": ["INPUT SMILES", "pIC50"],
 "data": [
  ["CN(O)C(=O)c1cc2ccn(Cc3ccc(F)cc3)c2cn1", 6.60],
  ["O=C(NO)c1cc2ccn(Cc3cccc(Cl)c3Cl)c2cn1", 6.35],
  ["O=C(NO)c1cc2ccn(Cc3cccc(Cl)c3F)c2cn1", 6.99],
  ["O=C(c1cc2ccn(Cc3ccc(F)cc3)c2cn1)N(O)CCCO", 6.09],
  ["O=C(O)c1cc2ccn(Cc3cccc(Cl)c3Cl)c2cn1", 5.27]
]}

[1] O=C(O)c1cc2ccn(Cc3ccc(F)cc3)c2cn1
[2] CONC(=O)c1cc2ccn(Cc3ccc(F)cc3F)c2cn1
## Input Between 1 and 2 , which one shows the larger pIC50 value? # respond with the chosen item's label
## Output 2

----------
- System: Human immunodeficiency virus 1
- METHOD: Antiviral activity against HIV1 RF in human CEM-SS cells assessed inhibition of virus-induced cytopathic effect by XTT assay
- Assay type: functional, organism-based
- CONDITION CONTEXT: Human immunodeficiency virus 1, RF
TEST READOUT: EC50 (nM)
Write the answer as a number in nM, unit excluded.

Please review the entries below; each comes with its answer.
{"columns": ["INPUT SMILES", "UNIT LABEL", "EC50"],
 "data": [
  ["O=C(NO)c1cc2ccn(Cc3ccc(F)cc3)c2cn1", "nM", 9],
  ["CCCN(O)C(=O)c1cc2ccn(Cc3ccc(F)cc3)c2cn1", "nM", 350],
  ["N#Cc1cc(F)ccc1Cn1ccc2cc(C(=O)NO)ncc21", "nM", 120]
]}

## Input So what does the record say about EC50 for O=C(NO)c1cc2ccn(Cc3ccc(Cl)s3)c2cn1 ?
## Output 20

## Input Entry O=C(NO)c1cc2ccn(Cc3ccc(F)cc3F)c2cn1 : reported EC50 = ?
## Output 8

## Input Returns the measured EC50 for the input molecule. Input: CC(C)CN(O)C(=O)c1cc2ccn(Cc3ccc(F)cc3)c2cn1
## Output 1400

## Input Requested read-out: EC50. Entry: O=C(NO)c1cc2ccn(Cc3c(F)ccc(Cl)c3F)c2cn1
## Output 7

## Input So what's the measured EC50 for this one? O=C(NO)c1cc2ccn(Cc3cccc(CO)n3)c2cn1
## Output 730

## Input EC50 for NC(=O)c1cc(F)ccc1Cn1ccc2cc(C(=O)NO)ncc21 ?
## Output 55

## Input Give its EC50 value. Item: O=C(NO)c1cc2ccn(Cc3cccc(Cl)c3Cl)c2cn1
## Output 35

## Input Data request, read-out EC50, for CONC(=O)c1cc2ccn(Cc3ccc(F)cc3F)c2cn1
## Output 21
